method-summary: Pharmacokinetic profile after single oral, intranasal and intravenous betahistine in beagle dogs, Example 5
Assay type: in vivo
recorded-conditions: male, beagle, dog, in vivo, po, 12 mg/kg, Betahistine Plasma Concentration

smiles-input: CNCCc1ccccn1
result-units: ng/mL
concentration at 3 h: 0.036

###

method-summary: Pharmacokinetic profile after single oral, intranasal and intravenous betahistine in beagle dogs, Example 5
Format: in vivo
recorded-conditions: male, beagle, dog, in vivo, po, 12 mg/kg
Entries annotated with measured Cmax
quantity-name: Cmax (ng/mL)

compound: O=C(O)Cc1ccccn1 [2-PAA, 2-pyridylacetic acid]
quantity-name: Cmax
experimental-result: 12700
--
compound: CNCCc1ccccn1 [betahistine]
quantity-name: Cmax
experimental-result: 18.9

###

method-summary: Pharmacokinetic profile after single oral, intranasal and intravenous betahistine in beagle dogs, Example 5
Assay type: in vivo
recorded-conditions: male, beagle, dog, in vivo, po, 12 mg/kg
quantity-name: half-life (min)

compound: CNCCc1ccccn1 [betahistine]
experimental-result: 18.8

###

method-summary: Pharmacokinetic profile after single oral, intranasal and intravenous betahistine in beagle dogs, Example 5
Assay type: in vivo
recorded-conditions: both sexes, beagle, dog, in vivo, po, 48 mg/kg, Betahistine Plasma Concentration

compound: CNCCc1ccccn1 [betahistine]
result-units: ng/mL
concentration at 1 h: 56.5

###

method-summary: Pharmacokinetic profile after single oral, intranasal and intravenous betahistine in beagle dogs, Example 5
Format: in vivo
recorded-conditions: both sexes, beagle, dog, in vivo, po, 12 mg/kg, Betahistine Plasma Concentration
quantity-name: concentration at 1 h (ng/mL)

smiles-input: CNCCc1ccccn1
quantity-name: concentration at 1 h
result-units: ng/mL
experimental-result: 9.86

###

method-summary: Pharmacokinetic profile after single oral, intranasal and intravenous betahistine in beagle dogs, Example 5
Type: in vivo
recorded-conditions: female, beagle, dog, in vivo, iv, 0.44 mg/kg, Betahistine Plasma Concentration

smiles-input: CNCCc1ccccn1
concentration at 2 h: 0.274 ng/mL

###

method-summary: Pharmacokinetic profile after single oral, intranasal and intravenous betahistine in beagle dogs, Example 5
Format: in vivo
recorded-conditions: female, beagle, dog, in vivo, po, 48 mg/kg, Betahistine Plasma Concentration

smiles-input: CNCCc1ccccn1
concentration at 3 h / ng/mL: 10.1

###

method-summary: Pharmacokinetic profile after single oral, intranasal and intravenous betahistine in beagle dogs, Example 5
Format: in vivo
recorded-conditions: male, beagle, dog, in vivo, inhaled or intranasal, 9.8 mg/kg

compound: CNCCc1ccccn1 [betahistine]
AUC(0-inf) / ng·h/mL: 202
--
compound: O=C(O)Cc1ccccn1 [2-PAA, 2-pyridylacetic acid]
AUC(0-inf) / ng·h/mL: 10400

###

method-summary: Pharmacokinetic profile after single oral, intranasal and intravenous betahistine in beagle dogs, Example 5
Format: in vivo
recorded-conditions: female, beagle, dog, in vivo, po, 12 mg/kg

molecule: CNCCc1ccccn1 [betahistine]
result-units: h
Tmax: 1

###

method-summary: Single ascending-dose clinical trial of intranasal betahistine in healthy volunteers (plasma pharmacokinetics, LC-MS/MS)
recorded-conditions: both, human, plasma, inhaled or intranasal, 0.29 mg/kg

smiles-input: CNCCc1ccccn1
result-units: ng·h/mL
AUC: 1.61

###

method-summary: Pharmacokinetic profile after single oral, intranasal and intravenous betahistine in beagle dogs, Example 5
Format: in vivo
recorded-conditions: both sexes, beagle, dog, in vivo, po, 24 mg/kg, Betahistine Plasma Concentration
quantity-name: concentration at 0.167 h (ng/mL)

compound: CNCCc1ccccn1 [betahistine]
quantity-name: concentration at 0.167 h
experimental-result: 5.15

Value source: patent US20200022963A1
